Assay: acid dissociation constant (pKa) by conventional titration
readout.label: pKa

# compound, readout.label, measured.value
data = [
    ("CCCCCCCCON1C(C)(C)CC(OC(=O)CCCCCCCCC(=O)OC2CC(C)(C)N(OCCCCCCCC)C(C)(C)C2)CC1(C)C", "pKa", 4.4),
    ("CN1C(C)(C)CC(OC(=O)CC(C(=O)OC2CC(C)(C)N(C)C(C)(C)C2)C(CC(=O)OC2CC(C)(C)N(C)C(C)(C)C2)C(=O)OC2CC(C)(C)N(C)C(C)(C)C2)CC1(C)C (stereo not drawn)", "pKa", 8.9),
]

We now examine a further compound.
Query string: Tell me the measured pKa of `CC1(C)CC(OC(=O)CCCCCCCCC(=O)OC2CC(C)(C)NC(C)(C)C2)CC(C)(C)N1` , please.
Result string: 9

Data provenance is patent US20100190878A1.
